- Assay method text: Equilibrium solubility by the shake flask method
- Type: physicochemical
- Applied conditions: simulated gastric fluid, thermodynamic from solid; pH = 1.2 hydrochloric acid solution, 37 °C, n = 3; read-out: Equilibrium solubility, Concentration
Assay metric: solubility thermodynamic at 72 h (mg/mL)
Write the answer as a number in mg/mL, unit excluded.

Inquiry: Annotate the compound O=C1CCC[C@@H]2[C@H]3CCCN4CCC[C@@H](CN12)[C@@H]34 with its measured solubility thermodynamic at 72 h.
Reply text: 90.9

* * *

- Assay method text: Equilibrium solubility by the shake flask method
- Format: physicochemical
- Applied conditions: thermodynamic from solid; H2O (purified water), 37 °C, n = 3; read-out: Equilibrium solubility, Concentration
Assay metric: solubility thermodynamic at 72 h (mg/mL)
Field: numeric (mg/mL). Do not append units.

Inquiry: Provide one value: measured solubility thermodynamic at 72 h of O=C1CCC[C@@H]2[C@H]3CCCN4CCC[C@@H](CN12)[C@@H]34 [MAT, Matrine]
Reply text: 65.4

* * *

- Assay method text: Equilibrium solubility by the shake flask method
- Format: physicochemical
- Applied conditions: aqueous buffer, thermodynamic from solid; pH = 6.8 phosphate buffer, 37 °C, n = 3; read-out: Equilibrium solubility, Concentration
Assay metric: solubility thermodynamic at 72 h (mg/mL)
Form entry: value (mg/mL) — number only.

Inquiry: Kindly indicate its recorded solubility thermodynamic at 72 h. Item: O=C1CCC[C@@H]2[C@H]3CCCN4CCC[C@@H](CN12)[C@@H]34
Reply text: 64.9
